- assay.overview: Racecadotril and degradation products over time in Acetate and Citrate at pH 3.6, 4.0, 4.5 (untitled table)
- Assay type: physicochemical
- measurement.parameters: Acetate, pH 3.6, 3 week
readout.kind: Thiorphan (%)
Your answer is read as %, so omit the unit and give the number.

Ask | Fill in: Thiorphan of CC(=O)SCC(Cc1ccccc1)C(=O)NCC(=O)OCc1ccccc1 (racemic) [Racecadotril] is ___
Reply | 0.14

###

- assay.overview: Racecadotril and degradation products over time in Acetate and Citrate at pH 3.6, 4.0, 4.5 (untitled table)
- Type: physicochemical
- measurement.parameters: Acetate, pH 4.5, 8 week
readout.kind: Thiorphan (%)
Your answer is read as %, so omit the unit and give the number.

Ask | Fill in: Thiorphan of CC(=O)SCC(Cc1ccccc1)C(=O)NCC(=O)OCc1ccccc1 (racemic) [Racecadotril] is ___
Reply | 0.36
